Molecular target: STAT6 (Homo sapiens, UniProt P42226)
Construct: These cells express endogenous STAT6; host or cells: HeLa LgBiT clone 4.14
Assay: Stat6 Degrader Assay (HiBiT based, HeLa LgBiT clone 4.14)
Assay type: cell-based
Conditions: HeLa LgBiT clone 4.14 HiBiT-STAT6, 4-24 h incubation; values given for compounds with >80% Emax; geometric mean; read-out: STAT6 degradation DC50
Give measured DC50 for each item. Keep answers brief.
Numbers only; they are read as nM.

Input line: Which DC50 reading was recorded for the compound CNc1ccn(-c2ccnc3c2cc([C@H](C)N2CCC(c4c(C)cc(C(=O)N5CCC(CN6CCN(Cc7ccc8c(c7)n(C7CC7)c(=O)n8[C@H]7CCC(=O)NC7=O)C[C@@H]6C)CC5)cc4F)CC2)n3C)c(=O)c1 (single isomer, unassigned) [Example 3u198] ?
Output line: 1.2

Input line: Which DC50 value belongs to CNc1ccn(-c2ccnc3c2cc(CN2CCC(c4c(F)cc(C(=O)N5CCC(CN6CCN(Cc7ccc8c(c7)C(C)(C)C(=O)N8[C@H]7CCC(=O)NC7=O)CC6)CC5)cc4F)CC2)n3C)c(=O)c1 (single isomer, unassigned) [Example 3u17] ?
Output line: 6

Input line: Fill blank: measured DC50 of the compound CNc1cc(=O)n(-c2ccnc3c2cc(CN2CC=C(c4c(F)cc(C(=O)N5CCC(CN6CCN(Cc7ccc8c(c7)C(C)(C)C(=O)N8C7CCC(=O)NC7=O)C[C@@H]6C)CC5)cc4F)CC2)n3C)cc1F (stereo partly shown) [Example 3u77] is ____.
Output line: 16.1

Input line: Look up DC50: CNc1ccn(-c2ccnc3c2cc(CN2CCC(c4c(F)cc(C(=O)N5CCC(CN6CCN(Cc7ccc8c(c7)C(C)(C)C(=O)N8[C@@H]7CCC(=O)NC7=O)C[C@@H]6C)CC5)cc4F)CC2)n3C)c(=O)c1 (single isomer, unassigned) [Example 3u206]
Output line: 0.4

====

Target: STAT6 (Homo sapiens, UniProt P42226)
Construct: These cells express endogenous STAT6; host or cells: HeLa LgBiT clone 4.14
Sequence (P42226 1-847): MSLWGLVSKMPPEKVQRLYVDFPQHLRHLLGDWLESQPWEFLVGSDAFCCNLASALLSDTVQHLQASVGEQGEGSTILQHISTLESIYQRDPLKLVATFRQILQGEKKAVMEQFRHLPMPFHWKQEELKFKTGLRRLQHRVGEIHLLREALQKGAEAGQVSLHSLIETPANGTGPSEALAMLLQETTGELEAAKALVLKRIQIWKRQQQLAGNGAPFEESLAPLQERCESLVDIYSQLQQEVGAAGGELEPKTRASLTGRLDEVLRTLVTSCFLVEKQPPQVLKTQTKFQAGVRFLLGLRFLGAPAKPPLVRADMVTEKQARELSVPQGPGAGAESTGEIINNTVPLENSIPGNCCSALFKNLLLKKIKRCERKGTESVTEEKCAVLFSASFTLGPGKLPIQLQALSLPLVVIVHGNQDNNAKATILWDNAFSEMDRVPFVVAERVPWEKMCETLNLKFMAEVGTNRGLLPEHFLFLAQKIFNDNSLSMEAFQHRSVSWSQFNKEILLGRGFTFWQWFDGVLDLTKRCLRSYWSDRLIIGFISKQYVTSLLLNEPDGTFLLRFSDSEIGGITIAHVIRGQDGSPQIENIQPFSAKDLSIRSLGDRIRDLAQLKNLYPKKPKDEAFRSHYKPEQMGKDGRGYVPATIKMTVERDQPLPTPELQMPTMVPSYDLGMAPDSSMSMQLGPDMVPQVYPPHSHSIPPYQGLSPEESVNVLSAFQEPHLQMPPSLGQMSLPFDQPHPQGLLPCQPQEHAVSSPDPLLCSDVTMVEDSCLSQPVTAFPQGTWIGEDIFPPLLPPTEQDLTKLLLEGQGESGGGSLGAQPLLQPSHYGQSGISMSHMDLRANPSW
Experiment: Stat6 Degrader Assay (HiBiT based, HeLa LgBiT clone 4.14)
Type: cell-based
Settings: HeLa LgBiT clone 4.14 HiBiT-STAT6, 4-24 h incubation; values given for compounds with >80% Emax; geometric mean; read-out: STAT6 degradation DC50
Give measured log10(DC50) for each item. Keep answers brief.
Short version: log10 scale, DC50, nM.

Input line: Entry CNc1cc(=O)n(-c2ccnc3c2cc([C@H](C)N2CC=C(c4c(C)cc(C(=O)N5CCC(CN6CCN(Cc7ccc8c(c7)n(C7CC7)c(=O)n8[C@@H]7CCC(=O)NC7=O)C[C@@H]6C)CC5)cc4F)CC2)n3C)cc1F (single isomer, unassigned) [Example 3u120] , system STAT6 (Homo sapiens, UniProt P42226): what log10(DC50) was measured?
Output line: 0.00

Input line: Write down the reported log10(DC50) of C[C@H]1CN(Cc2ccc3c(c2)C(C)(C)C(=O)N3C2CCC(=O)NC2=O)CCN1CC1CCN(C(=O)c2ccc(C3CCN([C@@H](C)c4cc5c(-n6ccc7c(c6=O)CCN7)ccnc5n4C)CC3)cc2)CC1 (stereo partly shown) [Example 3u184] , test system: STAT6 (Homo sapiens, UniProt P42226).
Output line: 0.38

Input line: Any idea what log10(DC50) came out for CNc1cc(=O)n(-c2ccnc3c2cc([C@H](C)N2CC=C(c4c(C)cc(C(=O)N5CC=C(CC6CCN(c7ccc8c(c7)C7(CC7)C(=O)N8C7CCC(=O)NC7=O)CC6)CC5)cc4F)CC2)n3C)cc1F (stereo partly shown) [Example 3u20] on STAT6 (Homo sapiens, UniProt P42226)?
Output line: 0.67

Input line: log10(DC50) of CNc1ccn(-c2ccnc3c2cc(CN2CC=C(c4c(F)cc(C(=O)N5CCC(CN6CCN(Cc7ccc8c(c7)C(C)(C)C(=O)N8[C@@H]7CCC(=O)NC7=O)C[C@@H]6C)CC5)cc4F)CC2)n3C)c(=O)c1 (single isomer, unassigned) [Example 3u47] on STAT6 (Homo sapiens, UniProt P42226)?
Output line: -0.10

Input line: Identify the measured log10(DC50) of Cc1cc(C(=O)N2CCC(CN3CCN(Cc4ccc5c(c4)n(C)c(=O)n5[C@@H]4CCC(=O)NC4=O)C[C@@H]3C)CC2)cc(F)c1C1=CCN([C@@H](C)c2cc3c(-n4ccc5c(c4=O)CCN5)ccnc3n2C)CC1 (single isomer, unassigned) [Example 3u139] for STAT6 (Homo sapiens, UniProt P42226).
Output line: -0.70

Input line: Write down the reported log10(DC50) of Cc1cc(C(=O)N2CCC(CN3CCN(Cc4ccc5c(c4)n(C)c(=O)n5[C@@H]4CCC(=O)NC4=O)C[C@@H]3C)CC2)cc(F)c1C1=CCN(Cc2cc3c(-n4ccc5c(c4=O)CCN5)ccnc3n2C)CC1 (single isomer, unassigned) [Example 3u25] , test system: STAT6 (Homo sapiens, UniProt P42226).
Output line: 0.11

Input line: Give STAT6 (Homo sapiens, UniProt P42226) log10(DC50) for CNc1cc(=O)n(-c2ccnc3c2cc([C@H](C)N2CC=C(c4c(C)cc(C(=O)N5CCC(CN6CCN(c7ccc8c(c7)n(C)c(=O)n8[C@@H]7CCC(=O)NC7=O)CC6)CC5)cc4F)CC2)n3C)cc1F (single isomer, unassigned) [Example 3u297]
Output line: 0.34

Input line: Find log10(DC50) (STAT6 (Homo sapiens, UniProt P42226)) for the entry CNc1cc(=O)n(-c2ccnc3c2cc(CN2CC=C(c4c(F)cc(C(=O)N5CCC(CN6CCN(Cc7ccc8c(c7)n(C)c(=O)n8[C@H]7CCC(=O)NC7=O)C[C@@H]6C)CC5)cc4F)CC2)n3C)cc1F (single isomer, unassigned) [Example 3u56]
Output line: 0.94

Input line: Find the measured log10(DC50): item Cc1cc(C(=O)N2CCC(CN3CCN(Cc4ccc5c(c4)C4(CC4)C(=O)N5C4CCC(=O)NC4=O)C[C@@H]3C)CC2)cc(F)c1C1=CCN([C@@H](C)c2cc3c(-n4cc(F)c5c(c4=O)CCN5)ccnc3n2C)CC1 (stereo partly shown) [Example 3u116] , target or system STAT6 (Homo sapiens, UniProt P42226).
Output line: 0.94

Input line: Give the reported log10(DC50) for Cc1cc(C(=O)N2CCC(CN3CCN(Cc4ccc5c(c4)C(C)(C)C(=O)N5C4CCC(=O)NC4=O)C[C@@H]3C)CC2)cc(F)c1C1=CCN([C@@H](C)c2cc3c(-n4cc(F)c(N)cc4=O)ccnc3n2C)CC1 (stereo partly shown) [Example 3u169] (system: STAT6 (Homo sapiens, UniProt P42226)).
Output line: 0.61

Input line: Recorded log10(DC50) for Cc1cc(C(=O)N2CCC(CN3CCN(Cc4ccc5c(c4)n(C)c(=O)n5C4CCC(=O)NC4=O)C[C@@H]3C)CC2)cc(F)c1C1=CCN([C@@H](C)c2cc3c(-n4ccc5c(c4=O)CCN5)ccnc3n2C)CC1 (stereo partly shown) [Example 3u137] with STAT6 (Homo sapiens, UniProt P42226), please?
Output line: -0.70

Input line: Find log10(DC50) (STAT6 (Homo sapiens, UniProt P42226)) for the entry CNc1cc(=O)n(-c2ccnc3c2cc([C@H](C)N2CC=C(c4c(C)cc(C(=O)N(C)c5ccc(N6CCN(Cc7ccc8c(c7)n(C)c(=O)n8C7CCC(=O)NC7=O)CC6)nc5)cc4F)CC2)n3C)cc1F (stereo partly shown) [Example 3u237]
Output line: -1.00

Input line: Form field - read-out: log10(DC50); system: STAT6 (Homo sapiens, UniProt P42226); submitted item: CNc1ccn(-c2ccnc3c2cc([C@H](C)N2CC=C(c4c(C)cc(C(=O)N5CCC(CN6CCN(Cc7ccc8c(c7)C7(CC7)C(=O)N8[C@@H]7CCC(=O)NC7=O)C[C@@H]6C)CC5)cc4F)CC2)n3C)c(=O)c1 (single isomer, unassigned) [Example 3u192]
Output line: -0.22

Input line: Any idea what log10(DC50) came out for CNc1ccn(-c2ccnc3c2cc(CN2CCC(c4c(F)cc(C(=O)N5CCC(CN6CCN(Cc7ccc8c(c7)C(C)(C)C(=O)N8C7CCC(=O)NC7=O)C[C@@H]6C)CC5)cc4F)CC2)n3C)c(=O)c1 (stereo partly shown) [Example 3u204] on STAT6 (Homo sapiens, UniProt P42226)?
Output line: 0.40

Input line: Please state recorded log10(DC50) (tested on STAT6 (Homo sapiens, UniProt P42226)) of Cc1cc(C(=O)N2CCC(CN3CCN(Cc4ccc5c(c4)n(C)c(=O)n5[C@H]4CCC(=O)NC4=O)C[C@@H]3C)CC2)cc(F)c1C1=CCN(Cc2cc3c(-n4ccc5c(c4=O)CCN5)ccnc3n2C)CC1 (single isomer, unassigned) [Example 3u24]
Output line: 0.08

Input line: Notebook entry, STAT6 (Homo sapiens, UniProt P42226) assay: log10(DC50) of CNc1nc(=O)n(-c2ccnc3c2cc([C@H](C)N2CC=C(c4c(C)cc(C(=O)N5CCC(CN6CCN(Cc7ccc8c(c7)C7(CC7)C(=O)N8C7CCC(=O)NC7=O)C[C@@H]6C)CC5)cc4F)CC2)n3C)cc1F (stereo partly shown) [Example 3u102] = ?
Output line: 0.53
